- TESTED SYSTEM: T1, human PD-L1-Fc protein (human, UniProt Q9NZQ7 19-238)
- T1 construct: coating antigen of the ELISAs; also called rhPD-L1-Fc; not shown: Fc
- T1 sequence (Q9NZQ7 19-238 limits assumed): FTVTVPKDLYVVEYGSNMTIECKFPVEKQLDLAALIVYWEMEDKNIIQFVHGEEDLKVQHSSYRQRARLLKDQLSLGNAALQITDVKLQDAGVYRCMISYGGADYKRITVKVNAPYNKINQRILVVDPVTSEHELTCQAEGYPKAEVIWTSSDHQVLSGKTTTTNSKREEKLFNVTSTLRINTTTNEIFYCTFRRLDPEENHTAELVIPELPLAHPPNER
- ASSAY INFO: ELISA, antibody titrated on coated human PD-L1-Fc, OD 450nm; upper right panel
Entries whose EC50 is below 10 ng/mL take condition met; entries at or above 10 ng/mL take condition not met.

BINDER	CLASS LABEL
Hu47C6A3-2 (antibody, V domains shown, humanized) VH: QVQLQESGPGLVKPSETLSLTCTVSGYSITSDYAWNWIRQPPGKGLEWIGYIIYSGSTSYNPSLKSRVTISRDTSKNQFSLKLSSVTAADTAVYYCARSTMIATNWFAYWGQGTLVTVSS VL: DIQMTQSPSSLSASVGDRVTITCKASQDVSLAVAWYQQKPGKAPKLLIYWASTRHTGVPSRFSGSGSGTDFTLTISSLQPEDFATYYCQQHYITPWTFGGGTKVEIK	condition not met
Hu89C10H8-10 (antibody, V domains shown, humanized) VH: EVQLVESGGGLVKPGGSLRLSCAASGFTFSNYWMTWVRQAPGKGLEWVASITNTGSSTFYPDSVKGRFTISRDNAKNSLYLQMNSLRAEDTAVYYCTRDTTIAPFDYWGQGTMVTVSS VL: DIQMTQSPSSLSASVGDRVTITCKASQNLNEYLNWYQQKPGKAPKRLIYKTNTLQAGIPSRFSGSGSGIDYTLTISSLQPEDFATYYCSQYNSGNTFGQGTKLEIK	condition met
Hu67F3G7-12 (antibody, V domains shown, humanized) VH: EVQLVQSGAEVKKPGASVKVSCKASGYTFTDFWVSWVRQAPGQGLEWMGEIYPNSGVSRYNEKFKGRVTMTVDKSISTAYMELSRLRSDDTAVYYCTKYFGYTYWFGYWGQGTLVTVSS VL: DTVLTQSPSSLSASVGDRVTITCRASKSVSTYMHWYQQKPGKQPKLLIYSASHLESGVPSRFSGSGSGTDFTLTISSLQPEDFATYYCQQSNELPVTFGGGTKVEIK	condition met
Hu67F3G7-11 (antibody, V domains shown, humanized) VH: EVQLVQSGAEVKKPGASVKVSCKASGYTFTDFWVSWVRQAPGQGLEWMGEIYPNSGVSRYNEKFKGRVTMTVDKSISTAYMELSRLRSDDTAVYYCARYFGYTYWFGYWGQGTLVTVSS VL: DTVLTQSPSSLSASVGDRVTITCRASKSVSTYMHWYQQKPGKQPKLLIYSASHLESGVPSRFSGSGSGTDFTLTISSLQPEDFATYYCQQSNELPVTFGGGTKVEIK	condition met
Hu67F3G7-7 (antibody, V domains shown, humanized) VH: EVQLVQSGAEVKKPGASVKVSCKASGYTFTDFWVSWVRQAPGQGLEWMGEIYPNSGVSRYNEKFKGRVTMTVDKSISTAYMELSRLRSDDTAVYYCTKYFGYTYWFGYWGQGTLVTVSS VL: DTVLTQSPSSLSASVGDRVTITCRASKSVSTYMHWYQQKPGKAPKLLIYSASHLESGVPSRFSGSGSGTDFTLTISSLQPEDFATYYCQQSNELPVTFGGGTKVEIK	condition not met

Next binder, please.
Task: Input Hu89C10H8-8 (antibody, V domains shown, humanized) VH: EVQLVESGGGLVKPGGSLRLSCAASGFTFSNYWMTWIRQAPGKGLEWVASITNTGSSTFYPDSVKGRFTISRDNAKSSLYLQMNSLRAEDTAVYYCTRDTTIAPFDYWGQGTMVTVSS VL: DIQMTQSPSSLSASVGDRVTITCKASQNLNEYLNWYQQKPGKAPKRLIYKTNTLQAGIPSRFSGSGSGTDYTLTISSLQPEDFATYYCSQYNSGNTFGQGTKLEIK ; condition: EC50 strictly below 10 ng/mL. Does it hold?
Output: condition met

The origin of these recorded values is patent US20230287125A1.
